assay: soluble on expression in E. coli; label from the status in PepcDB or PDB records
assay.endpoint: soluble on expression in E. coli

Worked examples, 4 sequences total:
[
  {
    "sequence.entry": "LAQPAMAMVGSRNATPQGLANADAFAEAASNAGFCIISGLAQGIDTAAHQGGLRGASSSMAIVGTGLDLVYPSRNHELAHKLANEGGLISEFPLGTPAISRNFPRRNRIISGMCHACLVVEATLYSGSLITARLALEQGREVMAIPGSIHSPLSKGCHALIKQGAKLVENIQDILDE",
    "soluble on expression in E. coli": "not soluble"
  },
  {
    "sequence.entry": "MQTFNRERLEFALDKRGCTQTKLAELLGITARQVRNYVKDEQIPDLNELANLLEFPVHFFTNDERLPELKSQAVSFRARSRTSKRLEKQALNHSITAFLLNDWLETEFTLSQAVLPDFSDISPEEAAQELRLEWGLGNEPIPNMITLLEVKGVRVFSLSLDTKDIDAFCTWYENHPFVFLNTQKSAERSRFDAAHELGHLIRDKYSMEHSKNSEITEDEPRDIIEKEANAFASAFLMPEAALRLYRHVPITIENLLKIKRRFGVSLVALAYRMHKLGMITDRMYIHNLCPLFAKKKYRTIEPEPMEREISSALRKMLTILKNDGIGIEQIAENLNVSPKDVADLTFGLVERDLNRYRKLRLVK",
    "soluble on expression in E. coli": "not soluble"
  },
  {
    "sequence.entry": "GSHMLEMSGPRAGFYRQELNKTVWEVPQRLQGLRPVGSGAYGSVCSAYDARLRQKVAVKKLSRPFQSLIHARRTYRELRLLKHLKHENVIGLLDVFTPATSIEDFSEVYLVTTLMGADLNNIVKCQALSDEHVQFLVYQLLRGLKYIHSAGIIHRDLKPSNVAVNEDSELRILDFGLARQADEEMTGYVATRWYRAPEIMLNWMHYNQTVDIWSVGCIMAELLQGKALFPGSDYIDQLKRIMEVVGTPSPEVLAKISSEHARTYIQSLPPMPQKDLSSIFRGANPLAIDLLGRMLVLDSDQRVSAAEALAHAYFSQYHDPEDEPEAEPYDESVEAKERTLEEWKELTYQEVLSFKPPEPPKPPGSLEIEQ",
    "soluble on expression in E. coli": "soluble"
  },
  {
    "sequence.entry": "SFQEQTTKSRDVNSFQIPLRDGVRELLPEDASRNRASIKSPVDIWIGGENMTALNGIVDGGRKFEAGQEFQINTFGSVNYWVSDEEIRVFKEYSARAKYAQNEGRTALEANNVPFFDIDVPPELDGVPFSLKARVRHKSKGVDGLGDYTSISVKPAFYITEGDETTDTLIKYTSYGSTGSHSGYDFDDNTLDVMVTLSAGVHRVFPVETELDYDAVQEVQHDWYDESFTTFIEVYSDDPLLTVKGYAQILMERT",
    "soluble on expression in E. coli": "soluble"
  }
]

// soluble on expression in E. coli lookup, sequence = MAHHHHHHMKNALEQLDRHPLVNFQMDVSPLYSALKNIMQEQIQQAQLQEKISQRLTNLEAEVRSVGVRQKEFEDSLDALTPDAKLQTQQTLKELSTNIKNLTSDMKKVRYDVGEAMRTAVDAKRGIHDLESELLSIRQQQRDFSDLHQEVMREHLKFTAAVKDIRWKIEEQEKLIQEFSQVKPQNTSEVDESKLHGMLSALCERTDQNFRSVEESSFAVDAELTRLRADMKFVQNEVRMLRSELHRGGNHLRRDVGCRRQSPHGGSQGADKSALRNEEHLNGYESASTQGAL , result: not soluble
